Test system: Mycobacterium tuberculosis
method.summary: Antibiofilm activity against Mycobacterium bovis BCG
Format: functional, organism-based
assay.context: variant bovis BCG
Assign IC50 to each entry below.

>  <mol>
CO[C@H]1/C=C/O[C@@]2(C)Oc3c(C)c(O)c4c(O)c(c(/C=N/N5CCN(C)CC5)c(O)c4c3C2=O)NC(=O)/C(C)=C\C=C\[C@H](C)[C@H](O)[C@@H](C)[C@@H](O)[C@@H](C)[C@H](OC(C)=O)[C@@H]1C

>  <target.or.test.system>
Mycobacterium tuberculosis

>  <IC50>
1220 nM

$$$$
>  <mol>
CC(C)=C1C[C@H]2C(C)(C)[C@@]3(Br)C(=O)c4c(O)cc(O)cc4[C@]2(C1)C3=O

>  <target.or.test.system>
Mycobacterium tuberculosis

>  <IC50>
220 to 13900 nM

$$$$
>  <mol>
COc1cc(OC)c2c(c1)[C@@]13CC(=C(C)C)C[C@H]1[C@](C)(CCC=C(C)C)[C@@](Br)(C2=O)C3=O

>  <target.or.test.system>
Mycobacterium tuberculosis

>  <IC50>
160 to 2500 nM

$$$$

Here's the next entry for you.
Query: IC50; subject: COc1cc(O)c2c(c1)[C@@]13CC(=C(C)C)C[C@H]1[C@](C)(CCC=C(C)C)[C@@](Br)(C2=O)C3=O
640 to 10300 nM
